- experimental system: RELA; note: reference of the scale not given here
- experimental protocol: pooled miR-30 sensor sort-seq; sequence = guide strand
- experimental conditions: shRNA
Response key: Condition met means sensor-assay potency score (higher = more potent) >= -0.04; Condition not met means sensor-assay potency score (higher = more potent) < -0.04.

[[record]]
sequence_input = "TTCTATAGGAACTTGGAAGGGG"
category = "Condition met"


INPUT: Determine whether measured sensor-assay potency score (higher = more potent) meets or exceeds -0.04 for `TTTCCTACAAGCTCGTGGGGGT`
OUTPUT: Condition not met

INPUT: Is the recorded value of sensor-assay potency score (higher = more potent) equal to or greater than -0.04 for this sequence? `TATCTGTGCTCCTCTCGCCTGG`
OUTPUT: Condition not met

INPUT: Check the entry `TCAATGATCTCCACATAGGGGC` : does sensor-assay potency score (higher = more potent) equal or exceed -0.04?
OUTPUT: Condition not met

meta.source: the OligoGym collection
